# Test system: 786–0
# PROCEDURE_SUMMARY: NCI60 antitumor screening
# Type: cell-based, human
# CONDITION_PARAMETERS: 10 μM one-dose
TEST_READOUT: GI%

# SMILES_STRING, READING
rows = [
    ("Cc1ccc(CSc2nc(-c3ccc(F)cc3)c(C#N)c(N3CCOCC3)n2)cc1", "55.92%"),
    ("N#Cc1c(Cl)nc(SCc2ccccc2)nc1-c1ccc(F)cc1", "38.26%"),
    ("Cc1ccc(CSc2nc(Cl)c(C#N)c(-c3ccc(F)cc3)n2)cc1", "12.30%"),
    ("N#Cc1c(Cl)nc(SCc2ccc(F)cc2)nc1-c1ccc(F)cc1", "— (GI% < 10)"),
    ("N#Cc1c(-c2ccc(F)cc2)nc(SCc2ccc([N+](=O)[O-])cc2)nc1N1CCOCC1", "69.78%"),
    ("N#Cc1c(-c2ccc(F)cc2)nc(SCc2ccc([N+](=O)[O-])cc2)[nH]c1=O", "— (GI% < 10)"),
    ("N#Cc1c(-c2ccc(F)cc2)nc(SCc2ccccc2)nc1N1CCOCC1", "— (GI% < 10)"),
    ("Cc1ccc(CSc2nc(-c3ccc(F)cc3)c(C#N)c(=O)[nH]2)cc1", "— (GI% < 10)"),
    ("N#Cc1c(Cl)nc(SCc2ccc([N+](=O)[O-])cc2)nc1-c1ccc(F)cc1", "21.29%"),
]

All figures here come from paper PMC10620772.
